Just for reference, patent US9545105B2 is where these values come from.

# assay.procedure: log P by HPLC on reversed-phase column (C 18), EEC Directive 79/831 Annex V.A8
# Format: physicochemical
# experimental.conditions: HPLC on reversed-phase column (C 18); 40° C.; 0.1% aqueous formic acid and acetonitrile; linear gradient 10% to 90% acetonitrile
Below: a set of entries, each annotated with reported logP.
reported.property: logP

# molecule, observed.measurement
rows = [
    ("CCc1noc(C)c1C(=O)N1CCCCC1c1ccccc1C (stereo not shown)", 3.19),
    ("Cc1cc(C)cc(C2CCCCN2C(=O)c2nn(C)cc2Br)c1 (stereo not shown)", 3.55),
    ("Cc1ccc(CC2CCCCN2C(=O)c2cc(C)oc2C)cc1 (stereo not shown)", 3.99),
    ("CC(c1ccccc1Cl)C1CCCCN1C(=S)c1c(C(F)F)nn(C)c1F (stereo not shown)", 4.53),
]
